# Assayed target: T1, Macaca fascicularis PDGFRb.mmh (Macaca fascicularis)
# T1 construct: Soluble monomeric construct; also called mfPDGFRb.mmh
# T1 chain: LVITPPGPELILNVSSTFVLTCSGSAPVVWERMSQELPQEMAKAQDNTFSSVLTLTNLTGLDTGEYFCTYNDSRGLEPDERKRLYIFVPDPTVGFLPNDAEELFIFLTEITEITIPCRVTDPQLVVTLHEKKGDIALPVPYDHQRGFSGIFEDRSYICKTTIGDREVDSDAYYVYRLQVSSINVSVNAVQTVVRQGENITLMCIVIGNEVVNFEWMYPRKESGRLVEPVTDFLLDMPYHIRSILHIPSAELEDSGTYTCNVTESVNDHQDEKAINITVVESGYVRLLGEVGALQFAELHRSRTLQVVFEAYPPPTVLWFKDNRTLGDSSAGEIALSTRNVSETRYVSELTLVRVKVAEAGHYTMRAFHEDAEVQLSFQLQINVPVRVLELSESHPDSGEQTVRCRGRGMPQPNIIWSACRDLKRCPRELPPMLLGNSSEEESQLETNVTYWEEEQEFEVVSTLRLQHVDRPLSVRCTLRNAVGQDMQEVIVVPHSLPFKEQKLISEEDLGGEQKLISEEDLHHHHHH
# Assay info: SPR, mAb captured, 25 C
Tag: 1 if measured koff is not below 0.0009 s⁻¹, 0 if it is.

{"Binder": "H4H3096S (antibody, human IgG4, V domains shown, human IgG4 Fc (H4H prefix)) VH: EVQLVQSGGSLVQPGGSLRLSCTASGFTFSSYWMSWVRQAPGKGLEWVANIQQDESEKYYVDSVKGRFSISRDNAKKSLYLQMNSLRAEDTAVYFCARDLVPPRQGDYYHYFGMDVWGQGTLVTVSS VL: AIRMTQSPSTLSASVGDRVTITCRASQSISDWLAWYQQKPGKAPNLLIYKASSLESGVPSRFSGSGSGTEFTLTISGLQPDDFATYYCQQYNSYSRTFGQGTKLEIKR", "Answer label": 1}
{"Binder": "H4H3103S (antibody, human IgG4, V domains shown, human IgG4 Fc (H4H prefix)) VH: EVQLLQSGGGLVQPGGSLRLSCAASGFTFSHYWMSWVRQGPGKGLEWVATIKKDGSESYYVDSVRGRFTISRDNAKNSLYLQMNSLRTEDTAVYYCARDIVTPNVGYYFGMDVWGQGTTVTVSS VL: DIQMTQSPSTLSASVGDRVTITCRASQSISSWLSWYQQKPGKAPKLLIYMASTLESGVPSRFSGSGSGTDFTLTITSLQPDDFATYYCQQSNSYSRTFGHGTKLEIK", "Answer label": 1}
{"Binder": "H4H3094P (antibody, human IgG4, V domains shown, also called H4H3394P) VH: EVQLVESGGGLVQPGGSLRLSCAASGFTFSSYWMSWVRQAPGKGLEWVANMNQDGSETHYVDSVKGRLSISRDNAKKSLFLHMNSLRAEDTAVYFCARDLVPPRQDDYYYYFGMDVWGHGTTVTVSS VL: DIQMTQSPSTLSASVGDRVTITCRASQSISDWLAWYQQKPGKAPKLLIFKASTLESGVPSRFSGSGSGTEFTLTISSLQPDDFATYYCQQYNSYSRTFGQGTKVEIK", "Answer label": 0}
{"Binder": "H2M3368N (antibody, V domains shown, mouse Fc (H2M prefix; isotype not spelled out)) VH: QVQLQQWGAGLLKPSETLSLTCAVYGGSFSGYYWTWIRQSPGKGLEWMGEISHRGTTNYNPSLKSRLTISLDTSNNHFSLKLSSVTAADTAVYYCAREERLGMGYDYFGLDVWGQGTTVTVSS VL: EIVLTQSPATLSLSPGERATLSCRASQSVSTYLTWYQQKPGQAPRLLIYDASNRATGIPARFSGSGSGTDFTLTISSLEPEDCAVYYCQQRSIWITFGQGTRLEIK", "Answer label": 0}
